# System: Canis familiaris
# test description: Cmax in Beagle dog at 5 mg/kg, po
# Assay type: ADME, organism-based, Canis lupus familiaris
# Parameters: dose 5 mg/kg, route oral
# condition parameters: in vivo
measured attribute: Cmax (µM)
Unit µM implied. Number only.

**Q:** # input compound: CCOc1ccn(-c2ccc(F)cc2)c(=O)c1C(=O)Nc1ccc(Oc2ccnc(N)c2Cl)c(F)c1 [BMS-777607] ; wanted: its Cmax
**A:** 29

----------
# target of assay: Aurora kinase B (Homo sapiens, UniProt Q96GD4)
# Sequence (Q96GD4 whole entry): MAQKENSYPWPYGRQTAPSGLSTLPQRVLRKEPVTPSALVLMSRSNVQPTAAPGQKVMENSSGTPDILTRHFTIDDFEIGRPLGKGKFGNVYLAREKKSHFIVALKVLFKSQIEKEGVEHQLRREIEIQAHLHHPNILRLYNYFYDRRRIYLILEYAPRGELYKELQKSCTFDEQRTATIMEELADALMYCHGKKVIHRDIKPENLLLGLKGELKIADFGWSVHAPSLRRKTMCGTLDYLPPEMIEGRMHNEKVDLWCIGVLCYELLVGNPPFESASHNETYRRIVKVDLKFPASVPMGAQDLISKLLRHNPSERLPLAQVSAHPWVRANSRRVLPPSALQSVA
measured attribute: pIC50
Kindly note that pIC50 refers to -log10 of the concentration in mol/L and answer with the value alone.

**Q:** # input compound: `CCOc1ccn(-c2ccc(F)cc2)c(=O)c1C(=O)Nc1ccc(Oc2ccnc(N)c2Cl)c(F)c1` ; wanted: its pIC50
**A:** 7.11

----------
# System: Rattus norvegicus
# test description: Cmax in Sprague-Dawley rat at 10 mg/kg, po
# Type: ADME, organism-based
# Set-up: dose 10 mg/kg, route oral
# condition parameters: in vivo
measured attribute: Cmax (µM)
Unit µM implied. Number only.

**Q:** # input compound: `CCOc1ccn(-c2ccc(F)cc2)c(=O)c1C(=O)Nc1ccc(Oc2ccnc(N)c2Cl)c(F)c1` ; wanted: its Cmax
**A:** 8.7

----------
# test description: Tmax in Beagle dog at 5 mg/kg, po
# Format: ADME, organism-based, Canis lupus familiaris
# Design: dose 5 mg/kg, route oral
# condition parameters: in vivo
measured attribute: Tmax
Note: a bare number is incomplete; add the unit.

**Q:** # input molecule: `CCOc1ccn(-c2ccc(F)cc2)c(=O)c1C(=O)Nc1ccc(Oc2ccnc(N)c2Cl)c(F)c1` ; wanted: its Tmax
**A:** 2.3 h

----------
# target of assay: Hepatocyte growth factor receptor (Homo sapiens)
# Sequence (P08581 whole entry): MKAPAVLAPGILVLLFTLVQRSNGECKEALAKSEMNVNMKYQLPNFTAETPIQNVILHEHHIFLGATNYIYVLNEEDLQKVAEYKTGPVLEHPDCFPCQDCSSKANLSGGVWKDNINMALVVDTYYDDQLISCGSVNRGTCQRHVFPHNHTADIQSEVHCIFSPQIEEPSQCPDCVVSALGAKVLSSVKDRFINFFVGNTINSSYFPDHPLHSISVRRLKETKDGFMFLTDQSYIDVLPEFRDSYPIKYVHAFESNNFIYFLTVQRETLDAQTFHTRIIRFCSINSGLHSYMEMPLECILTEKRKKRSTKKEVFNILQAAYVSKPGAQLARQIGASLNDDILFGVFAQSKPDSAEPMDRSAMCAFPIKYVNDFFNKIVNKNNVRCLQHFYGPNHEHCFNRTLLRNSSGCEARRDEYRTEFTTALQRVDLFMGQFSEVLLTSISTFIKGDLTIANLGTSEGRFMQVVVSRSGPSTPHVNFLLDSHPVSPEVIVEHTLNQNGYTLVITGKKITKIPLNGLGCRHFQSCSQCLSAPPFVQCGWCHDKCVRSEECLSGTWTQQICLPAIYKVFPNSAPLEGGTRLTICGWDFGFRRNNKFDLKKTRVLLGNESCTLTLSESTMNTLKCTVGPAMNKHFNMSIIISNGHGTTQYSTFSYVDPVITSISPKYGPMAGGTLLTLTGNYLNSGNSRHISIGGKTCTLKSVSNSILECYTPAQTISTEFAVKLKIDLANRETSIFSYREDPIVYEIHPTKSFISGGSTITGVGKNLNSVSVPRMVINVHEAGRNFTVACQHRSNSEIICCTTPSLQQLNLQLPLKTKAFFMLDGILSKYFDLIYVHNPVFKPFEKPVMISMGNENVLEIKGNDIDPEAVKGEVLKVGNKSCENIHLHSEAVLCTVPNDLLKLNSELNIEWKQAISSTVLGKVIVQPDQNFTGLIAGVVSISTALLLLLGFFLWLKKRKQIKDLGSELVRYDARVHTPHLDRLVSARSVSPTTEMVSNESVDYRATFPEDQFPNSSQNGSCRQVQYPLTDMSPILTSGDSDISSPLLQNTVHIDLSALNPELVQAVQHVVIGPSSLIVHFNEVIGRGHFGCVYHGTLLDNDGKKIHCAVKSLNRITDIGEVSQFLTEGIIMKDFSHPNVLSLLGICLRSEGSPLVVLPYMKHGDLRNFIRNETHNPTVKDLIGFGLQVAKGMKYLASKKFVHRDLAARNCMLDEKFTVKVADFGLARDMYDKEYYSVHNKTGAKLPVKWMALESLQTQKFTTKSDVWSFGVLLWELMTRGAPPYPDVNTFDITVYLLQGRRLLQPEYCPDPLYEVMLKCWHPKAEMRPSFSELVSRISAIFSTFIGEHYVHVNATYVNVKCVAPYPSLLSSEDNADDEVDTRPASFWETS
# test description: Inhibition of MET
measured attribute: IC50 (nM)
Unit nM implied. Number only.

**Q:** # input compound: `Nc1nccc(Oc2ccc(NC(=O)c3c(OCCO)ccn(-c4ccc(F)cc4)c3=O)cc2F)c1Cl` ; wanted: its IC50
**A:** 2.6

**Q:** Next entry: `CC(C)Oc1ccn(-c2ccc(F)cc2)c(=O)c1C(=O)Nc1ccc(Oc2ccnc(N)c2Cl)c(F)c1`
**A:** 3.2

**Q:** Next entry: `Nc1nccc(Oc2ccc(NC(=O)c3cccn(-c4ccc(F)cc4)c3=O)cc2F)c1Cl`
**A:** 1

**Q:** Next entry: `CCOc1ccn(-c2ccc(F)cc2)c(=O)c1C(=O)Nc1ccc(Oc2ccnc(N)c2Cl)c(F)c1`
**A:** 3.9

**Q:** Next entry: `CC(C)c1c(Oc2ccc(NC(=O)c3cccn(-c4ccc(F)cc4)c3=O)cc2F)ccnc1N`
**A:** 3.4

**Q:** Next entry: `NCC#Cc1c(Oc2ccc(NC(=O)c3cccn(-c4ccc(F)cc4)c3=O)cc2F)ccnc1N`
**A:** 3.8

**Q:** Next entry: `Nc1nccc(Oc2ccc(NC(=O)c3cccn(-c4ccc(F)cc4)c3=O)cc2F)c1C#CCO`
**A:** 2.7

**Q:** Next entry: `CN1CCN(Cc2c(Oc3ccc(NC(=O)c4cccn(-c5ccc(F)cc5)c4=O)cc3F)ccnc2N)CC1`
**A:** 5.9

**Q:** Next entry: `Nc1nccc(Oc2ccc(NC(=O)c3cccn(-c4ccc(F)cc4)c3=O)cc2F)c1CO`
**A:** 3.4

**Q:** Next entry: `C#Cc1c(Oc2ccc(NC(=O)c3cccn(-c4ccc(F)cc4)c3=O)cc2F)ccnc1N`
**A:** 1

**Q:** Next entry: `Nc1cc(Oc2ccc(NC(=O)c3cccn(-c4ccc(F)cc4)c3=O)cc2F)ccn1`
**A:** 4.5

----------
# Tested on: NCI-H1993
# test description: Antiproliferative activity against Met-dependent human NCI-H1993 cells after 72 hrs by MTS assay
# Assay type: functional, cell-based
# condition parameters: NCI-H1993, 72 h
measured attribute: IC50
Note: a bare number is incomplete; add the unit.

**Q:** # input compound: `CCOc1ccn(-c2ccc(F)cc2)c(=O)c1C(=O)Nc1ccc(Oc2ccnc(N)c2Cl)c(F)c1` ; wanted: its IC50
**A:** 150 nM
